Molecular target: ShHTL7 (Striga hermonthica)
Sequence (A0A0M3PNA2 entry or part of it): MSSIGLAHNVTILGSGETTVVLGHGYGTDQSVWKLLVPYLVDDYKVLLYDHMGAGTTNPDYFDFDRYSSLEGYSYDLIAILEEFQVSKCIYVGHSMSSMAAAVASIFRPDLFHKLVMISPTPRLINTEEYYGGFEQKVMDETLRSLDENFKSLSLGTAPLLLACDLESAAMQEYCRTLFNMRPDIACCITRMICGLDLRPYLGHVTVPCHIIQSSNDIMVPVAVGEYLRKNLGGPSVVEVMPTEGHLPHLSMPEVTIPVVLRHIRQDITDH
Experiment: Competitive inhibition of ShHTL7 with Yoshimulactone Green (YLG) as substrate
Format: biochemical
Settings: YLG as substrate; text and Fig. 2; read-out: IC50, competitive ShHTL7 inhibition (YLG assay)
Protocol: Based on the structural feature of the lead compound 2h, we selected three regions to perform further modification (Supplementary Fig. 6), to try to further improve bioactivity. […] The excitation and emission wavelengths of YLG are 480 and 520 nm, respectively. We used a fluorescence spectrophotometer (CARY Eclipse) to detect the fluorescence intensity change of YLG during the enzymatic hydrolysis assay process. […] The changes of fluorescence at 520 nm of each well were recorded every 1 min for 30 min. […]
Decide using IC50 alone. Strictly below 5 µM: true. Equal to or above 5 µM: false.

{"COMPOUND": "CC1=CC(OC(=O)N2CCN(C(=O)COc3c(F)c(F)c(F)c(F)c3F)CC2)OC1=O (centres unmarked) [4b]", "CLASS_LABEL": "true"}
{"COMPOUND": "CC1=C[C@@H](OC(=O)N2CCN(C(=O)COc3ccc(Br)cc3C)CC2)OC1=O [(R)-4a]", "CLASS_LABEL": "false"}
{"COMPOUND": "CC1=CC(OC(=O)N2CCN(CC3CC4C=CC3C4)CC2)OC1=O (centres unmarked) [4c]", "CLASS_LABEL": "true"}
{"COMPOUND": "CC1=C[C@H](OC(=O)N2CCN(C(=O)COc3ccc(Br)cc3C)CC2)OC1=O [(S)-4a]", "CLASS_LABEL": "true"}

Inquiry: Below 5 µM on IC50? Entry CC1=CC(OC(=O)N2CCN(C(=O)COc3ccc(Br)cc3C)CC2)OC1=O (centres unmarked) [4a]
Reply text: true
